# credit: paper PMC6759624

Molecular target: T1, recombinant human glypican-4 (human, UniProt O75487 19-529)
T1 construct: also called GPC4; rHSPG; source: bought: R&D Systems; from the Chinese Hamster Ovary cell line
T1 sequence (looked up): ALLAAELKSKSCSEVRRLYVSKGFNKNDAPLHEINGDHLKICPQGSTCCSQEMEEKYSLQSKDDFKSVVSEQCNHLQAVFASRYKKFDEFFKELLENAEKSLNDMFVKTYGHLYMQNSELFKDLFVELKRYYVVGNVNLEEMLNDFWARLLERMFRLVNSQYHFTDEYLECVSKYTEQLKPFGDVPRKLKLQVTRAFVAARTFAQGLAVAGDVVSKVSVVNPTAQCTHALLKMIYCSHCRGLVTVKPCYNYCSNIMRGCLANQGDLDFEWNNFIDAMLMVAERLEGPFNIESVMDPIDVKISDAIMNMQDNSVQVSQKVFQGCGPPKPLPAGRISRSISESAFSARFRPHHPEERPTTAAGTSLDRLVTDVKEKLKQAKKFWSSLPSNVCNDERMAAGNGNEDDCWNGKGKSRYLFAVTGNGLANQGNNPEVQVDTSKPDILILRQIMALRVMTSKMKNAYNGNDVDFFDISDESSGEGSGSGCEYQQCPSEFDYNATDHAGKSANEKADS
Experiment: SPR; Biacore T100; NT4-biotin captured on streptavidin on a CM5 chip; HSPG diluted in HBS-EP+ (Hepes 10 mM, NaCl 150 mM, EDTA 3.4 mM, 0.05% p20, pH 7.4) injected over it; 1:1 Langmuir model
Conditions: both partners purified
endpoint: pKd
Give only the number. pKd is defined as minus log10 of concentration in molar units.

# pKd of ELYENKPRRPYIL (pyroglutamate at position 1 (pyE); the four arms are built on a branching core of lysines, K2K-PEG12-K(biotin), the 13-amino-acid arm of the tetrabranched peptide; the first letter is pyroglutamate (printed pyE); Tetrabranched: four copies of the arm joined by their C-termini to the amines of a three-lysine core (K2K), followed by PEG12 and Lys(biotin); The core is not written as a chain; also called NT4 peptide; NT4 conjugated with biotin; source: synthetic peptide (Fmoc chemistry, HPLC purified); not …) [NT4-biotin (pyELYENKPRRPYIL)4K2K-PEG12-K(biotin)] = 7.11
